Experiment: Quantitative High-Throughput drug screen in 47 multiple myeloma cell lines against the NCATS MIPE library collection: Karpas25_ECACC cell viability assay (AID 1918968; also: nearly all actives have a fitted effect of over 35% in size)
Settings: Karpas25 myeloma viability, CellTiter-Glo ATP, 48 h; series mostly up to 45.8 µM
Inconclusive results are not listed. Active and inactive are the calls of the source. Calls follow the shape of the dose curve; as a rule, active = well fitted cell-killing curve with a large enough effect; inconclusive = small, poorly fitted or top-dose-only effect, or effect the other way; inactive = no such curve, though single readings can be large or run the other way.
Answer with one of the outcomes given here: active, inactive

Examples with answers:
compound	assigned_class
COc1cccc2c1C(=O)c1c(O)c3c(c(O)c1C2=O)C[C@@](O)(C(=O)CO)C[C@H]3O[C@H]1C[C@H](N)[C@H](O)[C@H](C)O1	active
CC(O)(C#Cc1ccc2c(c1)N(c1nc(N)ncc1Cl)CC2)c1nccs1 (stereo unspecified)	active
C[C@H](CCC(=O)O)[C@H]1CC[C@H]2[C@@H]3[C@H](O)C[C@@H]4C[C@H](O)CC[C@]4(C)[C@@H]3CC[C@]12C	inactive
COc1ccc(S(=O)(=O)Nc2cc(-c3c(O)ccc4ccccc34)c(O)c3ccccc23)cc1	active

Query string: Would you mind telling me which call this test gave CCOC(=O)[C@H](CCc1ccccc1)N[C@@H](C)C(=O)N1[C@@H](C(=O)O)C[C@H]2CCC[C@@H]21 ?
Result string: active

----------
Assay: Quantitative High-Throughput drug screen in 47 multiple myeloma cell lines against the NCATS MIPE library collection: OPM2_DSMZ cell viability assay (AID 1919872); also: nearly all actives have a fitted effect of over 30% in size; also: potency is read from the fitted curve at half-maximal effect
Conditions: OPM2 myeloma viability, CellTiter-Glo ATP luminescence, 48 h; series mostly up to 45.8 µM
Inconclusive results are not listed. Activity calls are given as the source filed them. The call rests on the fitted dose curve; in most records, active means well fitted cell-killing curve with a large enough effect; inconclusive means small, poorly fitted or top-dose-only effect, or effect the other way; inactive means no such curve, though single readings can be large or run the other way.
measure_name: Potency

molecule	Potency
Nc1cccc2c1C(=O)N(C1CCC(=O)NC1=O)C2=O (configuration not stated)	0.0012 µM (active)
CC(C)(O)CC[C@@H](O)[C@](C)(O)[C@H]1CC[C@@]2(O)C3=CC(=O)[C@@H]4C[C@@H](O)[C@@H](O)C[C@]4(C)[C@@H]3CC[C@]12C	inactive
O=C(C=Cc1ccc(CN(CCO)CCc2c[nH]c3ccccc23)cc1)NO	0.209 µM (active)
COc1ccc(C=Cc2cc(OC)c(OC)c(OC)c2)cc1NC(=O)[C@H](N)CO	0.0083 µM (active)
CC(=O)OC[C@@H]1O[C@@H](n2ccc(=O)[nH]c2=O)[C@H](OC(C)=O)[C@H]1OC(C)=O	inactive
C#CCC(Cc1cnc2nc(N)nc(N)c2n1)c1ccc(C(=O)N[C@@H](CCC(=O)O)C(=O)O)cc1 (some centres not stated)	0.0332 µM (active)
COc1cc([C@@H]2c3cc4c(cc3[C@H](O)[C@H]3COC(=O)[C@@H]23)OCO4)cc(OC)c1OC	0.148 µM (active)
CCCCCN=C(N)NN=Cc1c[nH]c2ccc(OC)cc12	10.5 µM (active)

Query string: Which Potency reading was recorded for the molecule C[C@H]1O[C@H](O[C@H]2[C@H](O)[C@@H](O)[C@@H](O[C@H]3[C@H](O)[C@@H](O)C(O)O[C@H]3CO)O[C@H]2CO)[C@H](O)[C@@H](O)[C@H]1N[C@H]1C=C(CO)[C@@H](O)[C@H](O)[C@@H]1O (some centres not stated) ?
Result string: inactive

Query string: Which Potency reading was recorded for the molecule C[N+](C)([O-])CCNc1ccc(NCC[N+](C)(C)[O-])c2c1C(=O)c1c(O)ccc(O)c1C2=O ?
Result string: inactive

Query string: Which Potency reading was recorded for the molecule N#CNC(=NCCCCCCOc1ccc(Cl)cc1)Nc1ccncc1 ?
Result string: 0.0148 µM (active)

Query string: Which Potency reading was recorded for the molecule O=C(CCCCCCC(=O)Nc1cccnc1)NO ?
Result string: 8.33 µM (active)
